system.tested: CYP2C19 (Homo sapiens)
Construct: purchased Corning
Sequence (P33261 whole entry): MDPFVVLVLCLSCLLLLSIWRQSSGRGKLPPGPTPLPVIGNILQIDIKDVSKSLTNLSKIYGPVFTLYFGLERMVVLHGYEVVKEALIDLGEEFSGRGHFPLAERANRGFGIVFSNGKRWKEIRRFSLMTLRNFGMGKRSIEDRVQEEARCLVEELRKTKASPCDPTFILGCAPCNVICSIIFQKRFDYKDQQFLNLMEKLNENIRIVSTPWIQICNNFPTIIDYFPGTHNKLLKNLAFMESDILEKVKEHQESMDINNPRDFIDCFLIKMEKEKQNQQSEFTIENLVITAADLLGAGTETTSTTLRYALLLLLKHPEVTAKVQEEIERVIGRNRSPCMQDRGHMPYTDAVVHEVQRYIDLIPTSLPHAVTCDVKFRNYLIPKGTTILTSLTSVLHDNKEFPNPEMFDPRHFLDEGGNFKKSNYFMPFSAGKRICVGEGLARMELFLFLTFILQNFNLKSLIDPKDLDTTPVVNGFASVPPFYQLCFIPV
protocol: Cytochrome P450 inhibition
Assay type: in vitro ADME
cond: recombinant human CYP2C19 (Supersomes), pH 7.4, probe CEC, IC50 fluorescence, substrate CEC, read-out: P450 enzyme inhibition IC50 CYP2C19/CEC
measured.quantity: IC50

IN: Consider the compound shown here: "CN(C)c1ccc(/C=C/c2cc(-c3ccc(Br)cc3)cc(-c3ccc(Br)cc3)[o+]2)cc1" What is its recorded IC50?
OUT: > 10 µM

----------
protocol: Pharmacokinetic study in mice
Type: in vivo, male CD1 mice
cond: mouse, plasma; PO 5 mg/kg, male CD1 mice
measured.quantity: AUC(0-inf)
# include the unit after the value

IN: Need AUC(0-inf), item "CN(C)c1ccc(/C=C/c2cc(-c3ccc(Br)cc3)cc(-c3ccc(Br)cc3)[o+]2)cc1"
OUT: 90 ng·h/mL
